Listing of recorded IC50 (μg/test tube) by entry.
# target.desc: prolyl endopeptidase
# experimental.protocol: Measurement of anti-prolyl endopeptidase activity
# Type: biochemical
# cond: substrate Z-glycyl-proline-β-naphthylamide, phosphate buffer pH 7.0, absorbance at 410 nm
measurement.type: IC50 (μg/test tube)

O=CC1CCCN1C(=O)CCc1ccccc1 (stereo not shown); 0.018
O=CC1CCCN1C(=O)CCCc1ccccc1 (stereo not shown); 0.006
COC(=O)[C@@H]1CCCN1C(=O)Cc1ccccc1; 200
COC(=O)C1CCCN1C(=O)CCCc1ccccc1 (stereo not shown); 25
O=CC1CCCN1C(=O)CCCCCc1ccccc1 (stereo not shown); 0.35
COC(=O)[C@@H]1CCCN1C(=O)CCc1ccccc1; 60
O=CC1CCCN1C(=O)Cc1ccccc1 (stereo not shown); 0.8

* * *

# Tested on: experimental amnesia caused in rats by scopolamine
# experimental.protocol: Preventive effect against experimental amnesia caused in rats by scopolamine (intraperitoneal administration)
# Type: in vivo, Wister male rats
# cond: 2 mg/kg i.p.; scopolamine 3 mg/kg i.p.; assessed 24 and 48 hours after scopolamine
measurement.type: No. of amnesic rats/No. of rats tested

COC(=O)C1CCCN1C(=O)CCCc1ccccc1 (centres unmarked); 3/10
O=CC1CCCN1C(=O)CCCc1ccccc1 (centres unmarked); 3/15
O=CC1CCCN1C(=O)CCc1ccccc1 (centres unmarked); 4/15
COC(=O)[C@@H]1CCCN1C(=O)CCc1ccccc1; 8/10
O=CC1CCCN1C(=O)Cc1ccccc1 (centres unmarked); 3/10

* * *

# Test system: experimental amnesia caused in rats by scopolamine
# experimental.protocol: Preventive effect against experimental amnesia caused in rats by scopolamine (intraperitoneal administration)
# Format: in vivo, Wister male rats
# cond: 0.2 mg/kg i.p.; scopolamine 3 mg/kg i.p.; assessed 24 and 48 hours after scopolamine
Listed here: items and their measured No. of amnesic rats/No. of rats tested.
measurement.type: No. of amnesic rats/No. of rats tested

O=CC1CCCN1C(=O)CCc1ccccc1 (stereo not shown) [Compound No. 3, N-(3-phenylpropionyl)-prolinal]; 4/15
O=CC1CCCN1C(=O)CCCc1ccccc1 (stereo not shown) [Compound No. 5]; 2/15
COC(=O)C1CCCN1C(=O)CCCc1ccccc1 (stereo not shown) [Compound No. 6]; 5/10
O=CC1CCCN1C(=O)Cc1ccccc1 (stereo not shown) [Compound No. 1]; 7/10

* * *

# experimental.protocol: Acute toxicity test in mice
# cond: mouse, in vivo, ip; single i.p. administration in DMSO/physiological saline, five mice per group, observed at 24 and 48 hours; read-out: Average dose (mg/kg) at which the group remained sound and showed no sign of intoxication
measurement.type: NOAEL at 48 h (mg/kg)

O=CC1CCCN1C(=O)CCc1ccccc1 (stereo not drawn); 543
COC(=O)C1CCCN1C(=O)CCCc1ccccc1 (stereo not drawn); 536
COC(=O)[C@@H]1CCCN1C(=O)Cc1ccccc1; 535
O=CC1CCCN1C(=O)CCCc1ccccc1 (stereo not drawn); 534
O=CC1CCCN1C(=O)Cc1ccccc1 (stereo not drawn); 535
COC(=O)[C@@H]1CCCN1C(=O)CCc1ccccc1; 542
